target: Bcl-2 protein (Homo sapiens (Human)); experiment: Inhibition of Bcl-2 by the fluorescence polarisation technique; assay type: binding; details: fluorescence polarisation test; concentration that inhibits fluorescence polarisation by 50%; read-out: IC50 (nM) Bcl-2 FP
Sequence (P10415 whole entry): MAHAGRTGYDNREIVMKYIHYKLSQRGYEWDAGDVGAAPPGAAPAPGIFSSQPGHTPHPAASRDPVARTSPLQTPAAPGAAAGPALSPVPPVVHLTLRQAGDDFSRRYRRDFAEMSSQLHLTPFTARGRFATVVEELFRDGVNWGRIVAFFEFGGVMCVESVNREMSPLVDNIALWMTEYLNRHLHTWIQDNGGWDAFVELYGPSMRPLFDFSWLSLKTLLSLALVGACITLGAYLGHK
Structures can show the parent of a compound that is named as a salt.
endpoint: IC50 (nM)

Before answering, review these 4 worked examples.
- molecule: "N#Cc1ccc(N(C(=O)c2cc(-c3cc(Cl)ccc3C(=O)N3Cc4ccccc4C[C@H]3CN3CCOCC3)n3c2CCCC3)c2ccc(O)cc2)cc1 [Example 129, hydrochloride]"
  study_system: "Bcl-2 protein (Homo sapiens (Human))"
  endpoint: "IC50"
  result: 9
- molecule: "COc1cccc(N(C(=O)c2cc(-c3cc(Cl)ccc3C(=O)N3Cc4ccccc4C[C@H]3CN3CCOCC3)n3c2CCCC3)c2ccc(O)cc2)c1 [Example 124, hydrochloride]"
  study_system: "Bcl-2 protein (Homo sapiens (Human))"
  endpoint: "IC50"
  result: 28
- molecule: "CN1CCN(C[C@@H]2Cc3ccccc3CN2C(=O)c2cc3c(cc2-c2cc(C(=O)N(c4ccc(O)cc4)c4ccc5c(ccn5C)c4)c4n2CCC4)OCO3)CC1 [Example 76, bis(hydrochloride)]"
  study_system: "Bcl-2 protein (Homo sapiens (Human))"
  endpoint: "IC50"
  result: 17
- molecule: "COCCN1CCN(C[C@@H]2Cc3ccccc3CN2C(=O)c2cc3c(cc2-c2cc(C(=O)N(c4ccccc4)c4ccc(O)cc4)c4n2CCCC4)OCO3)CC1 [Example 105, bis(hydrochloride)]"
  study_system: "Bcl-2 protein (Homo sapiens (Human))"
  endpoint: "IC50"
  result: 10

I = COc1ccc(N(C(=O)c2cc(-c3cc(Cl)ccc3C(=O)N3Cc4ccccc4C[C@H]3CN3CCOCC3)n3c2CCCC3)c2ccc(O)cc2)cc1C(F)(F)F [Example 53, hydrochloride]
II = O=C(c1cc(-c2cc(F)ccc2C(=O)N2Cc3ccccc3C[C@H]2CN2CCOCC2)n2c1COCC2)N(c1ccc(O)cc1)c1ccc(F)cc1 [Example 99, hydrochloride]
III = O=C(c1cc(-c2cc3c(cc2C(=O)N2Cc4ccccc4C[C@H]2CN2CCOCC2)OCO3)n2c1CC(O)CC2)N(c1ccccc1)c1ccc(O)cc1 (stereo partly drawn) [Example 113, hydrochloride]
IV = Cn1ncc2cc(N(C(=O)c3cc(-c4cc(Cl)ccc4C(=O)N4Cc5ccccc5C[C@H]4CN4CCOCC4)n4c3COCC4)c3ccc(O)cc3)ccc21 [Example 101, hydrochloride]
V = N#Cc1cccc(N(C(=O)c2cc(-c3cc(Cl)ccc3C(=O)N3Cc4ccccc4C[C@H]3CN3CCOCC3)n3c2CCCC3)c2ccc(O)cc2)c1 [Example 119, hydrochloride]
Task item: Rank by IC50 (largest to smallest). Reply with the labels, ordered as the question asks.
Reply: I, II, III, V, IV
(I: 180 nM, II: 25 nM, III: 16 nM, V: 9 nM, IV: 5 nM)

A = CN1CCCc2cc(N(C(=O)c3cc(-c4cc5c(cc4C(=O)N4Cc6ccccc6C[C@H]4CN4CCOCC4)OCCO5)n4c3CCCC4)c3ccc(O)cc3)ccc21 [Example 40, hydrochloride]
B = Cc1ccc(N(C(=O)c2cc(-c3cc(Cl)ccc3C(=O)N3Cc4ccccc4C[C@H]3CN3CCOCC3)n3c2COCC3)c2ccc(O)cc2)cc1F [Example 82, hydrochloride]
C = CN1CCN(C[C@@H]2Cc3ccccc3CN2C(=O)c2ccc(Cl)cc2-c2cc(C(=O)N(c3ccc(O)cc3)c3ccc4c(ccn4C)c3)c3n2CCC3)CC1 [Example 77, bis(hydrochloride)]
Task item: Ordering: ascending IC50. Please list the labels in the order you were asked to rank them.
Reply: A, C, B
(A: 15 nM, C: 23 nM, B: 33 nM)

A = Cc1ccc(N(C(=O)c2cc(-c3cc4c(cc3C(=O)N3Cc5ccccc5C[C@H]3CN3CCOCC3)OCO4)n3c2CCCC3)c2ccc(O)cc2)cc1F [Example 4, hydrochloride]
B = Cl.[2H]C1([2H])Oc2cc(C(=O)N3Cc4ccccc4C[C@H]3CN3CCOCC3)c(-c3cc(C(=O)N(c4ccc(O)cc4)c4ccc(C)c(F)c4)c4n3CCCC4)cc2O1 [Example 51]
Task item: # query: argmin of IC50 over A and B Respond using the label that marks the chosen record.
Reply: A

1 = CN1CCN(C[C@@H]2Cc3ccccc3CN2C(=O)c2cc3c(cc2-c2cc(C(=O)N(c4ccc(O)cc4)c4ccc5c(ccn5C)c4)c4ccccn24)OCO3)CC1 [Example 57, bis(hydrochloride)]
2 = O=C(c1cc(-c2cc(F)ccc2C(=O)N2Cc3ccccc3C[C@H]2CN2CCOCC2)n2c1CCCC2)N(c1ccccc1)c1ccc(O)cc1 [Example 25, hydrochloride]
Task item: Please compare: 1 and 2 . Report which one has the smaller IC50 value. Refer to your chosen item by its label in the answer.
Reply: 1
(1: 12 nM, 2: 29 nM)
